3',5'-cyclic-AMP phosphodiesterase 4B (Homo sapiens, UniProt Q07343) IC50, compiled from various sources.
Sequence (Q07343 whole entry): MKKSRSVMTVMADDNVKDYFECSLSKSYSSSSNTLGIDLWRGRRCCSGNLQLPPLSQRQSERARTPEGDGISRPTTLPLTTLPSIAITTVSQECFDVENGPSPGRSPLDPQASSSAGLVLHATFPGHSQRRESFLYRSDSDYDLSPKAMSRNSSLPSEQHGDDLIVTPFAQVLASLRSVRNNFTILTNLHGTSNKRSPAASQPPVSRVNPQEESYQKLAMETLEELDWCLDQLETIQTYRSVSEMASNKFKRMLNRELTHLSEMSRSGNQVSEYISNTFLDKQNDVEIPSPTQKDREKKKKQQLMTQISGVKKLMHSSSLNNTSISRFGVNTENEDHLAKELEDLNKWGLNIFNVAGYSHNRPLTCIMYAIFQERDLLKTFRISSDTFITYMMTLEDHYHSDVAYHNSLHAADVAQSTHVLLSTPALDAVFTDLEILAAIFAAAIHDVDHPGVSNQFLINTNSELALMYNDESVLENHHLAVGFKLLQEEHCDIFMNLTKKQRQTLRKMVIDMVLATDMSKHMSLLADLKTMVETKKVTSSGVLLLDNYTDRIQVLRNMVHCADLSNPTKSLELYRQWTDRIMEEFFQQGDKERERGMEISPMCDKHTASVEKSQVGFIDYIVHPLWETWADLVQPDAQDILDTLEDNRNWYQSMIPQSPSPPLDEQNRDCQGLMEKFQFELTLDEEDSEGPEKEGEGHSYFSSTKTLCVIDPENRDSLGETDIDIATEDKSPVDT
One threshold, 3 µM, splits the recorded IC50 values: lower ones are TRUE, equal or higher ones are FALSE.

>  <compound>
O=C(c1ccc(-c2ccccc2F)o1)N1CCCc2ccccc21

>  <qualitative-label>
FALSE

$$$$
>  <compound>
COc1ccc(NC(=O)c2c(Cl)cncc2Cl)c2cc(C(F)(F)F)nn12

>  <qualitative-label>
TRUE

$$$$
>  <compound>
C=CCc1c(-c2cccc(NS(=O)(=O)c3ccccc3)c2)oc(=O)c2ccc(Cl)cc12

>  <qualitative-label>
FALSE

$$$$
>  <compound>
COc1ccc(-c2nc(C(=O)NCc3ccc(F)cc3F)c(CN)o2)c2ccc(C(F)(F)F)nc12

>  <qualitative-label>
TRUE

$$$$
>  <compound>
CCc1ccc2c(C3=NNC(=O)C3(C)C)ccc(OC)c2n1

>  <qualitative-label>
TRUE

$$$$
>  <compound>
CC1(C)Cc2c(c(N3CCOCC3)nc3sc4c(NCCN5CCOCC5)ncnc4c23)CO1

>  <qualitative-label>
TRUE

$$$$
>  <compound>
CCn1c(NC2CCC2)nc2ccsc2c1=O

>  <qualitative-label>
FALSE

$$$$
>  <compound>
COc1cccc(-c2cc(COc3ccc(C(F)(F)F)cc3)cc3cccnc23)c1

>  <qualitative-label>
TRUE

$$$$
>  <compound>
COc1ccc(C2=NNC(=O)CC2C)c2[nH]c(C(F)(F)F)nc12 (racemic)

>  <qualitative-label>
TRUE

$$$$
>  <compound>
COc1ccc(C2=NN(CCCCOc3ccc(C4=NNC(=O)CC4)c(F)c3F)C(=O)C2(C)C)c2sc(C(F)(F)F)nc12

>  <qualitative-label>
TRUE

$$$$
>  <compound>
O=C(CCc1nc2ccccc2n(CCc2ccccc2)c1=O)N1CCCCC1

>  <qualitative-label>
FALSE

$$$$
>  <compound>
CCc1cc2c(C3=NN(CCCCOc4ccc(C5=NNC(=O)CC5C)cc4)C(=O)CC3C)ccc(OC)n2n1 (centres undefined)

>  <qualitative-label>
TRUE

$$$$
>  <compound>
O=C(c1ccc(-c2cccc([N+](=O)[O-])c2)o1)N1CCc2ccccc2C1

>  <qualitative-label>
FALSE

$$$$
